Hey, just so you know, these numbers are from ChEMBL document CHEMBL1127478.

- TEST_DETAILS: Selectivity aUT/aP ratio of the compound
- Type: functional
For each entry below, report its Ratio value.
Please give the numeric answer without any surrounding text.

q: Return reported Ratio; argument: CC[C@H](C)[C@@H]1NC(=O)C(Cc2ccccc2)NC(=O)CC2(CCCCC2)SSC[C@H](C(=O)N(C)CC(=O)N[C@@H](CCCN=C(N)N)C(=O)NCC(N)=O)NC(=O)[C@H](CC(N)=O)NC(=O)[C@H](CCC(N)=O)NC1=O (stereo in doubt)
a: 10

q: Return reported Ratio; argument: CCOc1ccc(CC2NC(=O)CC3(CCCCC3)SSC[C@H](C(=O)N(C)CC(=O)N[C@@H](CCCN=C(N)N)C(=O)NCC(N)=O)NC(=O)[C@H](CC(N)=O)NC(=O)[C@H](CCC(N)=O)NC(=O)[C@H]([C@@H](C)CC)NC2=O)cc1 (stereo in doubt)
a: 80

* * *

- Species: Rattus norvegicus
- TEST_DETAILS: In vitro antiuterotonic activity in rat oxytocic bioassay in the absence of Mg2+
- Format: functional
- MEASUREMENT_PARAMETERS: read-out: pA2 (converted)
Residues, ends and D or L forms follow the SMILES beside them.
RESULT_TYPE: Kb
Write the numeric value and append its unit.

q: Return reported Kb; argument: CC[C@H](C)[C@@H]1NC(=O)[C@@H](Cc2c[nH]c3ccccc23)NC(=O)CC2(CCCCC2)SSC[C@@H](C(=O)N(C)CC(=O)N[C@@H](CCCN=C(N)N)C(=O)NCC(N)=O)NC(=O)[C@H](CC(N)=O)NC(=O)[C@H](CCC(N)=O)NC1=O (HELM PEPTIDE1{[dW].I.Q.N.C.[Sar].R.G.[am]}|CHEM1{[O=C(CC1(S[*:2])CCCCC1)[*:1]]}$PEPTIDE1,CHEM1,1:R1-1:R1|PEPTIDE1,CHEM1,5:R3-1:R2$$$V2.0)
a: 12.6 nM

q: Return reported Kb; argument: CC[C@H](C)C1NC(=O)CC2(CCCCC2)SSC[C@@H](C(=O)N(C)CC(=O)N[C@@H](CCCN=C(N)N)C(=O)NCC(N)=O)NC(=O)[C@H](CC(N)=O)NC(=O)[C@H](CCC(N)=O)NC(=O)[C@H](Cc2ccccc2)NC1=O (stereo in doubt)
a: 31.6 nM

q: Return reported Kb; argument: CN(CC(=O)N[C@@H](CCCN=C(N)N)C(=O)NCC(N)=O)C(=O)[C@@H]1CSSC2(CCCCC2)CC(=O)NC(Cc2ccc(O)cc2)C(=O)N[C@@H](Cc2ccccc2)C(=O)N[C@@H](CCC(N)=O)C(=O)N[C@@H](CC(N)=O)C(=O)N1 (stereo in doubt)
a: 10 nM

q: Return reported Kb; argument: CN(CC(=O)N[C@@H](CCCN=C(N)N)C(=O)NCC(N)=O)C(=O)[C@@H]1CSSC2(CCCCC2)CC(=O)NC(Cc2ccccc2)C(=O)NC(Cc2ccccc2)C(=O)N[C@@H](CCC(N)=O)C(=O)N[C@@H](CC(N)=O)C(=O)N1 (stereo in doubt)
a: 7.94 nM

q: Return reported Kb; argument: CC[C@H](C)[C@@H]1NC(=O)[C@@H](Cc2ccc(OC)cc2)NC(=O)CC2(CCCCC2)SSC[C@@H](C(=O)N(C)CC(=O)N[C@@H](CCCN=C(N)N)C(=O)NCC(N)=O)NC(=O)[C@H](CC(N)=O)NC(=O)[C@H](CCC(N)=O)NC1=O
a: 2.51 nM
